Every entry's value here was drawn from patent US20130336885A1.

Target: T1, human LgR5 ECD (amino acids 22-557 fused to His-Fc expressed in a baculovirus system, or amino acids 22-558 … (human, UniProt O75473 22-557))
T1 construct: not shown: C-terminal His-tagged Fc
T1 sequence: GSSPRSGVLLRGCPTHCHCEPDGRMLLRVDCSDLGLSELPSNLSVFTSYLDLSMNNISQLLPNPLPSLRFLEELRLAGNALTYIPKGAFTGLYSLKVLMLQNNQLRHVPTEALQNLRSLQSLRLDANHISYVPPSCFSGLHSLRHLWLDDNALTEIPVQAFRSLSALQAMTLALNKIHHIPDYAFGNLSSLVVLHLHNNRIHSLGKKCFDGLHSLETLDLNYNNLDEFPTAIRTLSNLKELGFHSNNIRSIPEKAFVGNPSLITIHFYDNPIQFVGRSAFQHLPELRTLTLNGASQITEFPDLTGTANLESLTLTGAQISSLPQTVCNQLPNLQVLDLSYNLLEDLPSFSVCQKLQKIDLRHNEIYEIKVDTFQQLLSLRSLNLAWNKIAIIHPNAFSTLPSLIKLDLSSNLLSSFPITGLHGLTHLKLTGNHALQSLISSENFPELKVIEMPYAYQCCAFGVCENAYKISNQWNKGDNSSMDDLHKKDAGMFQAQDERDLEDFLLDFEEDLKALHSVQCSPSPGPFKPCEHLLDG
Test: BIAcore-3000 SPR, IgG captured on goat anti-human Fc, human LgR5 ECD-Fc injected, 25 C, 1:1 Langmuir model
pKd: −log10 of the molar value.

{"Binder": "h8E11.v7 (antibody, V domains shown, VH CDR graft + 71R/78A; also called hu8E11.v7) VH: EVQLVQSGAEVKKPGASVKVSCKASGYTFSAYWIEWVRQAPGQGLEWIGEILPGSDSTDYNEKFKVRVTITRDTSTSTAYLELSSLRSEDTAVYYCARGGHYGSLDYWGQGTLVTVSS VL: DIVMTQSPDSLAVSLGERATINCRASESVDNYGNSFMHWYQQKPGQPPKLLIYLASNLESGVPDRFSGSGSRTDFTLTISSLQAEDVAVYYCQQNYEDPFTFGQGTKVEIKR", "pKd": 7.66}
{"Binder": "h8E11.v6 (antibody, V domains shown, VH CDR graft + 71A/78A; also called hu8E11.v6) VH: EVQLVQSGAEVKKPGASVKVSCKASGYTFSAYWIEWVRQAPGQGLEWIGEILPGSDSTDYNEKFKVRVTITADTSTSTAYLELSSLRSEDTAVYYCARGGHYGSLDYWGQGTLVTVSS VL: DIVMTQSPDSLAVSLGERATINCRASESVDNYGNSFMHWYQQKPGQPPKLLIYLASNLESGVPDRFSGSGSGTDFTLTISSLQAEDVAVYYCQQNYEDPFTFGQGTKVEIKR", "pKd": 7.85}
{"Binder": "h8E11.v4 (antibody, V domains shown, VH CDR graft + 67A/69F/71S/78V; also called hu8E11.v4) VH: EVQLVQSGAEVKKPGASVKVSCKASGYTFSAYWIEWVRQAPGQGLEWIGEILPGSDSTDYNEKFKVRATFTSDTSTSTVYLELSSLRSEDTAVYYCARGGHYGSLDYWGQGTLVTVSS VL: DIVMTQSPDSLAVSLGERATINCRASESVDNYGNSFMHWYQQKPGQPPKLLIYLASNLESGVPDRFSGSGSRTDFTLTISSLQAEDVAVYYCQQNYEDPFTFGQGTKVEIKR", "pKd": 8.44}
{"Binder": "h8E11.v3 (antibody, V domains shown, VH CDR graft + 71S/78V; also called hu8E11.v3) VH: EVQLVQSGAEVKKPGASVKVSCKASGYTFSAYWIEWVRQAPGQGLEWIGEILPGSDSTDYNEKFKVRVTITSDTSTSTVYLELSSLRSEDTAVYYCARGGHYGSLDYWGQGTLVTVSS VL: DIVMTQSPDSLAVSLGERATINCRASESVDNYGNSFMHWYQQKPGQPPKLLIYLASNLESGVPDRFSGSGSRTDFTLTISSLQAEDVAVYYCQQNYEDPFTFGQGTKVEIKR", "pKd": 8.33}
